Provenance of the data: patent US8440623B2

assay: Enzymatic stability in brain tissue; assay type: in vitro ADME
measurement_label: half-life (min)
I only need the number, in min, no unit after it.

Task item: Sample NC(=O)[C@H](Cc1ccccc1)NC(=O)[C@H](Cc1ccccc1)NC(=O)[C@@H]1CCCN1C(=O)[C@@H](N)Cc1ccc(O)cc1 [endomorphin II, H-Tyr-Pro-Phe-Phe-NH2] — what was its half-life?
Reply: 13
